Target: Transient receptor potential cation channel subfamily A member 1 (Homo sapiens)
Sequence (O75762 whole entry): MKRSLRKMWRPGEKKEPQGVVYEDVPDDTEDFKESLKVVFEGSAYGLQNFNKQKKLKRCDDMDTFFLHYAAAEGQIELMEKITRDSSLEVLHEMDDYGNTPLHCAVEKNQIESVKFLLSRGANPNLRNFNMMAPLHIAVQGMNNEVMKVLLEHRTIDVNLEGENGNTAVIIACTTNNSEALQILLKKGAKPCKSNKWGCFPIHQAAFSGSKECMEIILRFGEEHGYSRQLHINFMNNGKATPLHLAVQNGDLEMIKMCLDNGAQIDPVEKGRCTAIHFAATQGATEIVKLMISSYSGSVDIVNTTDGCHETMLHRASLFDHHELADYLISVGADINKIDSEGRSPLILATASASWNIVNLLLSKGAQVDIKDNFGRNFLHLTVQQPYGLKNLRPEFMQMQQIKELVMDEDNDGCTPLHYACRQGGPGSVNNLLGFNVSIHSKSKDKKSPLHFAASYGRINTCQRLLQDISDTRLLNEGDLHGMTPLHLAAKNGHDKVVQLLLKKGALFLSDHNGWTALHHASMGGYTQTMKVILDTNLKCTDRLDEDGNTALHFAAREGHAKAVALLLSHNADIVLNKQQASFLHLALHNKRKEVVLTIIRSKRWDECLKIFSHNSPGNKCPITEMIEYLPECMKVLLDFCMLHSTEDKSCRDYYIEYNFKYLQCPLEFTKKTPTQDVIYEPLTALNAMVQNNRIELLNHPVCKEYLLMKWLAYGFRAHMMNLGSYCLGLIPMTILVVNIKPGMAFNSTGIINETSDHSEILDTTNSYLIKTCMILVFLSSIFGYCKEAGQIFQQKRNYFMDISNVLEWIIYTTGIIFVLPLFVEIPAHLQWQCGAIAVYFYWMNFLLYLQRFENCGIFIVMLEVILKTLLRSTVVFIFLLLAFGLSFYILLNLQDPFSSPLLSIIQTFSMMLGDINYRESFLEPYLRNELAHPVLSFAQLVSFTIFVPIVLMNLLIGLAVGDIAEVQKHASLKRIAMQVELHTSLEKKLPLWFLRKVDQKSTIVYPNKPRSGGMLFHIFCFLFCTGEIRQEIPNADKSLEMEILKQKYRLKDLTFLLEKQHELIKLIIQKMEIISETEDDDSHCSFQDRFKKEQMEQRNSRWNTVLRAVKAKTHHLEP
Experiment: Activation of human TRPA1 expressed in TREx-HEK cells by Fluo-4 AM dye-based Ca2+ imaging assay
metric: EC50 (nM)
Answer in nM, number only, no unit symbol.

Value of EC50 reported for the molecule CCC(C)N=C=S (stereo not drawn) is 680

Value of EC50 reported for the molecule `C=CCCCCN=C=S` is 1040

Value of EC50 reported for the molecule `C=CCCCCCN=C=S` is 1050

Value of EC50 reported for the molecule `Oc1ccc(CN=C=S)cc1` is 20000

Value of EC50 reported for the molecule `C=CCCN=C=S` is 360

Value of EC50 reported for the molecule `CSCCCCCCCN=C=S` is 610

Value of EC50 reported for the molecule S=C=NCCc1ccccc1 [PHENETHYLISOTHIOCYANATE] is 370

Value of EC50 reported for the molecule `CSCCCN=C=S` is 450
